system: IL-10 cytokine receptor (JAK1/TYK2); assay: Human whole blood, IL-10-induced pSTAT3, lymphocytes; format: cell-based; details: Lymphocyte, read-out: IC50, IL-10, pSTAT3
readoutName: IC50 (nM)
Unit nM implied. Number only.

What value of measured IC50 is listed for O=C(Nc1nc2cccc(-c3ccc(CN4CCS(=O)(=O)CC4)cc3)n2n1)C1CC1 ?
2550

What value of measured IC50 is listed for CC[C@@H]1CN(C(=O)NCC(F)(F)F)C[C@@H]1c1cnc2cnc3[nH]ccc3n12 ?
90

---

tested on: IFNα cytokine receptor (JAK1/TYK2); test: Human whole blood, IFNα-induced pSTAT3, lymphocytes; format: cell-based; settings: Lymphocyte, read-out: IC50, IFNα, pSTAT3
readoutName: IC50
Write the quantity with the unit trailing the number.

Notebook entry, IFNα cytokine receptor (JAK1/TYK2) assay: IC50 of O=C(Nc1nc2cccc(-c3ccc(CN4CCS(=O)(=O)CC4)cc3)n2n1)C1CC1 [Filgotinib] = ?
1060 nM

Notebook entry, IFNα cytokine receptor (JAK1/TYK2) assay: IC50 of CC[C@@H]1CN(C(=O)NCC(F)(F)F)C[C@@H]1c1cnc2cnc3[nH]ccc3n12 [Upadacitinib] = ?
19 nM

---

system: IL-27 cytokine receptor (JAK1/JAK2, JAK1/TYK2); assay: Human whole blood, IL-27-induced pSTAT3, lymphocytes; type: cell-based; settings: Lymphocyte, read-out: IC50, IL-27, pSTAT3
For each of the compounds below, state its pIC50.
Notebook: values listed as pIC50 are -log10 of the concentration (mol/L).

What value of measured pIC50 is listed for CC[C@@H]1CN(C(=O)NCC(F)(F)F)C[C@@H]1c1cnc2cnc3[nH]ccc3n12 ?
7.36

What value of measured pIC50 is listed for O=C(Nc1nc2cccc(-c3ccc(CN4CCS(=O)(=O)CC4)cc3)n2n1)C1CC1 ?
5.93

---

For each of the compounds below, state its IC50.
tested on: IL-12 cytokine receptor (JAK2/TYK2); test: Human whole blood, IL-12-induced pSTAT4, lymphocytes; assay type: cell-based; settings: Homo sapiens, Lymphocyte, read-out: IC50, IL-12, pSTAT4
Unit µM implied. Number only.

What value of measured IC50 is listed for CC[C@@H]1CN(C(=O)NCC(F)(F)F)C[C@@H]1c1cnc2cnc3[nH]ccc3n12 [Upadacitinib] ?
0.145

What value of measured IC50 is listed for O=C(Nc1nc2cccc(-c3ccc(CN4CCS(=O)(=O)CC4)cc3)n2n1)C1CC1 [Filgotinib] ?
8.03

---

system: IL-6 cytokine receptor (JAK1/JAK2, JAK1/TYK2); assay: Human whole blood, IL-6-induced pSTAT1, CD3+ cells; assay type: cell-based; details: Homo sapiens, read-out: IC50, IL-6 induced pSTAT1 (CD3+ cells), single experiment
For each of the compounds below, state its pIC50.
Notebook: values listed as pIC50 are -log10 of the concentration (mol/L).

What value of measured pIC50 is listed for CC[C@@H]1CN(C(=O)NCC(F)(F)F)C[C@@H]1c1cnc2cnc3[nH]ccc3n12 ?
7.89

What value of measured pIC50 is listed for O=C(Nc1nc2cccc(-c3ccc(CN4CCS(=O)(=O)CC4)cc3)n2n1)C1CC1 ?
6.12

---

system: IL-6 cytokine receptor (JAK1/JAK2, JAK1/TYK2); test: Human whole blood, IL-6-induced pSTAT1, CD14+ cells; assay type: cell-based; conditions: read-out: IC50, IL-6, pSTAT1, CD14+ cells
readoutName: pIC50
Notebook: values listed as pIC50 are -log10 of the concentration (mol/L).

What value of measured pIC50 is listed for O=C(Nc1nc2cccc(-c3ccc(CN4CCS(=O)(=O)CC4)cc3)n2n1)C1CC1 [Filgotinib] ?
6.09

What value of measured pIC50 is listed for CC[C@@H]1CN(C(=O)NCC(F)(F)F)C[C@@H]1c1cnc2cnc3[nH]ccc3n12 [Upadacitinib] ?
7.59
